B1: Osa-1-4 twister ribozyme (parent)
chain: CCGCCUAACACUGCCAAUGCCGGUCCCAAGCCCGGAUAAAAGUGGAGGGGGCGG

variants of: B1; experiment: self-cleavage, relative activity (ratio to wild type); higher = more cleavage; co-transcriptional
# if value of self-cleavage reaches 0.06, tag satisfied; if it stays below, tag not satisfied

{"SEQUENCE_RECORD": "CCGCCUAACACUGCCAAUGCCGGUCCCAAGCCCGUAUAAAAGUGGCGGGGGCGG", "LABEL_CLASS": "not satisfied"}
{"SEQUENCE_RECORD": "CCGCCUAACACUGCCAAUGGCGGUCCCAAGCCCGGAUAAAAGUGGAGGCGGCGG", "LABEL_CLASS": "not satisfied"}
{"SEQUENCE_RECORD": "CCGCCUAACACUGCCAAUGCCGGGCCCAAGCCCGGAUAAGAGUGGAGGGGGCGG", "LABEL_CLASS": "not satisfied"}
{"SEQUENCE_RECORD": "CCGCCUAACACUUCCAAUGCCGGUCCCAAGCCCGGAUAAGAGUGGAGGGGGCGG", "LABEL_CLASS": "not satisfied"}
{"SEQUENCE_RECORD": "CCGCCUAACACUGCCAAUGCCGGCGCCAAGCCCGGAUAAAAGUGGAGGGGGCGG", "LABEL_CLASS": "not satisfied"}
{"SEQUENCE_RECORD": "CCGCCUAACACUGCCAAUGCCGGUCCCCAGCCCGGAUUAAAGUGGAGGGGGCGG", "LABEL_CLASS": "satisfied"}
{"SEQUENCE_RECORD": "CCGCCUAACACUGCCAAUGCCCGUCCCAAGCCCGGAUAACAGUGGAGGGGGCGG", "LABEL_CLASS": "not satisfied"}
{"SEQUENCE_RECORD": "CCGCCUAACACUGCCAAUGCCGGUCCCACGCCCGGAUAGAAGUGGAGGGGGCGG", "LABEL_CLASS": "not satisfied"}
{"SEQUENCE_RECORD": "CCGCCUAACACUGCCAAUGCCGGUCCCAAGCCCGGAUAAAGGUGGAAGGGGCGG", "LABEL_CLASS": "satisfied"}
{"SEQUENCE_RECORD": "CCGCCUAACACUGCCAAUGCCGGUCCCAAGCCCGGAUAAACGCGGAGGGGGCGG", "LABEL_CLASS": "satisfied"}
{"SEQUENCE_RECORD": "CCGCCUAACACUGCCAAUGCCGUUCCCAAGCCCGAAUAAAAGUGGAGGGGGCGG", "LABEL_CLASS": "not satisfied"}
{"SEQUENCE_RECORD": "CCGCCUAACACUGCCAAUGCCGGUCCCAAGCCCGGAUAAAAGUGGAGGGUGAGG", "LABEL_CLASS": "satisfied"}
{"SEQUENCE_RECORD": "CCGCCUAACACUGCCAAUGCCGGUCCCAAGCCCGGUUGAAAGUGGAGGGGGCGG", "LABEL_CLASS": "satisfied"}
{"SEQUENCE_RECORD": "CCGCCUAACCCUGCCAAUGCCGGUCCCCAGCCCGGAUAAAAGUGGAGGGGGCGG", "LABEL_CLASS": "satisfied"}
{"SEQUENCE_RECORD": "CCGCCUAACACUGCCAUUGCAGGUCCCAAGCCCGGAUAAAAGUGGAGGGGGCGG", "LABEL_CLASS": "satisfied"}
{"SEQUENCE_RECORD": "CCGCCUAACACUGCCAAUGCCGGUUCCAAGACCGGAUAAAAGUGGAGGGGGCGG", "LABEL_CLASS": "not satisfied"}
{"SEQUENCE_RECORD": "CCGCCUAACACUGCCAAUGCCGGUCCCAAGCCCGGAUAGAAGUGUAGGGGGCGG", "LABEL_CLASS": "satisfied"}
{"SEQUENCE_RECORD": "CCGCCUAACACUGCCAAUGCCGGUCCCAAGCCCGGAUAAAAGUCGAGGUGGCGG", "LABEL_CLASS": "satisfied"}
{"SEQUENCE_RECORD": "CCGCCUAACACUGCCAGUGCCGGUCCCAAGCCCGGACAAAAGUGGAGGGGGCGG", "LABEL_CLASS": "satisfied"}
{"SEQUENCE_RECORD": "CCGCCUAACACUGCCAAUGCCGGUCCCAAGCCCGGAUAAAAGUGGGGGGGGAGG", "LABEL_CLASS": "satisfied"}
{"SEQUENCE_RECORD": "CCGCCUAACACCGCCAAUGCCGGUCCCAAGCCCGGAUAAAAGUGGAGGGGCCGG", "LABEL_CLASS": "not satisfied"}
{"SEQUENCE_RECORD": "CCGCCUAAAACUGCCAUUGCCGGUCCCAAGCCCGGAUAAAAGUGGAGGGGGCGG", "LABEL_CLASS": "satisfied"}
{"SEQUENCE_RECORD": "CCGCCUAACACUGCCAAUGCCGGUCCCAUGCCCGGAUAAAAGUGGAGGGGGCGG", "LABEL_CLASS": "satisfied"}
{"SEQUENCE_RECORD": "CCGCCUAACACUGCCAAUGUCGGUCCCAAGCCCGGAUAAAAGUGGAGGGGGCUG", "LABEL_CLASS": "satisfied"}
{"SEQUENCE_RECORD": "CCGCCUAACACUGCCAACGCCGGUCCCAAGCCCGGAUAAAAGUGGGGGGGGCGG", "LABEL_CLASS": "satisfied"}
{"SEQUENCE_RECORD": "CCGCCUAACAUUGCCAAUGCCGGUCCCAAGCCCGGAUAAAAGUGGAGGGGGAGG", "LABEL_CLASS": "satisfied"}
{"SEQUENCE_RECORD": "CCGCCUAACACUGCCAAUUCCGGUCCCAAGCCCGGAUAAAAGUGGAGGGGUCGG", "LABEL_CLASS": "satisfied"}
{"SEQUENCE_RECORD": "CCGCCUAACACUGCCAAUGCCGGUCCAAAGCCCGGAUAACAGUGGAGGGGGCGG", "LABEL_CLASS": "not satisfied"}
{"SEQUENCE_RECORD": "CCGCCUAACACUGCCAAUGCCGGUCCCAAGCCCGGACAAACGUGGAGGGGGCGG", "LABEL_CLASS": "satisfied"}
{"SEQUENCE_RECORD": "CCGCCUAACACUGCCAAUGCCGGCACCAAGCCCGGAUAAAAGUGGAGGGGGCGG", "LABEL_CLASS": "not satisfied"}
{"SEQUENCE_RECORD": "CCGCCUAACACUGCCAAUGCCGGUCCCAAUCCCGGAUACAAGUGGAGGGGGCGG", "LABEL_CLASS": "not satisfied"}
{"SEQUENCE_RECORD": "CCGCCUAACACUGCCAAUGCCGGUCCCAAGCCCGGAUAACAGUGGAGGGGGCGA", "LABEL_CLASS": "satisfied"}
{"SEQUENCE_RECORD": "CCGCCUAACAGUGCCAAUGCCGGUCCCACGCCCGGAUAAAAGUGGAGGGGGCGG", "LABEL_CLASS": "not satisfied"}
{"SEQUENCE_RECORD": "CCGCCUAACACUGGCAAUGCCGGUCCCAAGCCCGCAUAAAAGUGGAGGGGGCGG", "LABEL_CLASS": "not satisfied"}
{"SEQUENCE_RECORD": "CCGCCUAACAGUGCCAAUGCCGGUCCCAAGUCCGGAUAAAAGUGGAGGGGGCGG", "LABEL_CLASS": "satisfied"}
{"SEQUENCE_RECORD": "CCGCCUAACACUGUCAAUGCCUGUCCCAAGCCCGGAUAAAAGUGGAGGGGGCGG", "LABEL_CLASS": "satisfied"}
{"SEQUENCE_RECORD": "CCGCCUAACACUGCCAAUGCCGGUCCCAGGCCCGGAUAAAAGCGGAGGGGGCGG", "LABEL_CLASS": "satisfied"}
{"SEQUENCE_RECORD": "CCGCCUAACACUGCCAAUGCAGGACCCAAGCCCGGAUAAAAGUGGAGGGGGCGG", "LABEL_CLASS": "satisfied"}
{"SEQUENCE_RECORD": "CCGCCUAACACUGCAAAUGCCGGUCCCAAGCCCGAAUAAAAGUGGAGGGGGCGG", "LABEL_CLASS": "satisfied"}
{"SEQUENCE_RECORD": "CCGCCUAACACUGCGAAUGCCGGUCCCAAGCCCGGAUAAAAGUGGAGGGGGCUG", "LABEL_CLASS": "satisfied"}
{"SEQUENCE_RECORD": "CCGCCUAACACUAUCAAUGCCGGUCCCAAGCCCGGAUAAAAGUGGAGGGGGCGG", "LABEL_CLASS": "not satisfied"}
{"SEQUENCE_RECORD": "CCGCCUAACACUGCCAAUGGCGGUCCCAAGCCCGGAUAAACGUGGAGGGGGCGG", "LABEL_CLASS": "satisfied"}
{"SEQUENCE_RECORD": "CCGCCUAACACUACGAAUGCCGGUCCCAAGCCCGGAUAAAAGUGGAGGGGGCGG", "LABEL_CLASS": "not satisfied"}
{"SEQUENCE_RECORD": "CCGCCUAACACUGCCAAUGCCGGUCCCAAGCCCGGAUAAAAGUGCAGGGGGCGU", "LABEL_CLASS": "satisfied"}
